I'd be grateful if you could share measured Ki for these entries.
measured.target: human cloned 5-HT6 receptors (Homo sapiens, UniProt P50406)
Sequence (P50406 whole entry): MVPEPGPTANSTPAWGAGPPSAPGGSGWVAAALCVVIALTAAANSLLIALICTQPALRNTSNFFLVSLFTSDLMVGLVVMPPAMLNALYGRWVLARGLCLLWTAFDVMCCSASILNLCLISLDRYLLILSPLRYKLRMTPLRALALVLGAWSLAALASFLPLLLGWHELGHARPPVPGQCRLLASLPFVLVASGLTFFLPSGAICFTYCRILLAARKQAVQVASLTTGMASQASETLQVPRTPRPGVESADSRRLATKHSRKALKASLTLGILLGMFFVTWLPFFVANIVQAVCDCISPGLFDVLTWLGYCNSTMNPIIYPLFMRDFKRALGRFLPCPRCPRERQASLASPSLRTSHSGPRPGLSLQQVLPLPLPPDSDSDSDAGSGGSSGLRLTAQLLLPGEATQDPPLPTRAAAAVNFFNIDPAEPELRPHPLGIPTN
Where a name gives a salt, the structure may show the parent alone.
Report the figure in nM without appending any unit label.

## Input Quick one: Ki of O=S(=O)(c1ccccc1)c1c[nH]c2ccc(N3CCNCC3)nc12 [Example 9, Dihydrochloride] ?
## Output 2

## Input And then CN1CCN(c2ccc3[nH]nc(S(=O)(=O)c4ccccc4)c3n2)CC1 [Example 4, hydrochloride] , what is it?
## Output 34
